Quick reference: OD450 of the listed items.
Molecular target: T1, human MSLN-FL-his protein (human, UniProt Q13421 296-580)
T1 construct: Self-made in HEK293E cells; also called human MSLN full-length protein; hMSLN-FL-his; not shown: His tag
T1 sequence (Q13421 other isoform, or with tags, fused parts or gaps): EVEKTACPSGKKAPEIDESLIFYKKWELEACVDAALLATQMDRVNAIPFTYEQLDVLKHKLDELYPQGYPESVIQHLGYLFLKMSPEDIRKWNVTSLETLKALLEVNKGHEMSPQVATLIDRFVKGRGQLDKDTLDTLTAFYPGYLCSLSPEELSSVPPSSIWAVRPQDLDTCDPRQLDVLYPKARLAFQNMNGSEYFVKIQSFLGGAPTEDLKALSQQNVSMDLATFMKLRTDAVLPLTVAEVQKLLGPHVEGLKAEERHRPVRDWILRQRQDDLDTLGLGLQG
Test: ELISA on coated antigen, no antibody (column none)
Give the figure together with its unit, number first.

The binder listed as S009-F3.16.1 (antibody, human IgG1, kappa, V domains shown, Human-murine chimeric antibody: murine VH/VL on human IgG1 heavy and kappa light constant regions) VH: EVKFEESGGGLVQPGGSMKLSCVASGFTFSNYWMNWVRQSPEKGLEWVAQIRLKSDNYATHYAESVKGRFSISRDDSKSSVYLQMNNLRAEDTGIYYCSVGTGGYWGQGTTLTVSS VL: DIVLTQSPASLALSPGKRATISCRASESVSIIGTDVIHWFQQKPGQPPKLLIYHASNLETGVPARFSGSGSRTDFTLTIDPVEEDDVAIYYCLQSRKIPWTFGGGTKLEIKR shows OD450 equal to 0.08 OD450

The binder listed as S009-F3.80.22 (antibody, human IgG1, kappa, V domains shown, Human-murine chimeric antibody: murine VH/VL on human IgG1 heavy and kappa light constant regions) VH: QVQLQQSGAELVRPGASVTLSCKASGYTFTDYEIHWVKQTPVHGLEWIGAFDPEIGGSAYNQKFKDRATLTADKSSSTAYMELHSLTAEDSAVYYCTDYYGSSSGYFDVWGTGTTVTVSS VL: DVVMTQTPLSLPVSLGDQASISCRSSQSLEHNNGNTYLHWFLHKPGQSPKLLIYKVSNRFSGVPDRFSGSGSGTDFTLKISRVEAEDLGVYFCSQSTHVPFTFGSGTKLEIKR shows OD450 equal to 0.07 OD450

The binder listed as S009-F3.38.10 (antibody, human IgG1, kappa, V domains shown, Human-murine chimeric antibody: murine VH/VL on human IgG1 heavy and kappa light constant regions) VH: EVQLQQSGPVLVKPGASVKMSCEASGYIFTDYYMNWVKKSHGKSLEWIGVINPKNGVISHNQKFKGKATLTVDKSSNTAYMELSSLTSEDSAVYYCANYGSRFYAMDYWGQGTSVTVSS VL: DVVMTQTPLSLPVSLGDQASISCRSSQSLIHSDGNTYLQWYLQKSGQSPKLLIYKVSNRFSGVPDRFSGSGSGTDFTLKISRVETEDLGVYFCSQTTHVPFTFGSGTKLEIKR shows OD450 equal to 0.07 OD450
